- Tested on: HT29 colon
- ASSAY_PROTOCOL: NCI tumour cell line growth inhibition, 48 h
Where a SMILES comes first, the peptide text is derived from it. [ ]: non-standard residue; d: D form. The star is where a group is joined. ξ: configuration not given here. X6 = FC(F)(F)c1cc(NC(=S)*)cc(C(F)(F)F)c1; ξF = NC(Cc1ccccc1)C(=O)O
GI50 for assorted molecules
PARAMETER: GI50

>>> assay_result("Cc1ccc(C(=O)/C(=C/c2ccc([N+](=O)[O-])cc2)SCc2ccc(Cl)cc2)cc1")
"676 nM"
>>> assay_result("O=S(=O)(NC1=NCCN1C(=S)SN1CCn2c1nsc2=S)c1ccc(OC(F)(F)F)cc1")
"11400 nM"
>>> assay_result("COC(=O)[C@@H](NC(=O)CNC(=O)[C@H]1CCCN1C(=O)C(Cc1ccccc1)NC(=S)Nc1cc(C(F)(F)F)cc(C(F)(F)F)c1)C(C)C (stereo partly drawn) (X6-[ξF][dP]GV-OMe)")
"2440 nM"

* * *

- Test system: LOX IMVI melanoma
- ASSAY_PROTOCOL: NCI tumour cell line growth inhibition, 48 h
PARAMETER: TGI (µM)

>>> assay_result("COc1c(C)c(C/C=C(\\C)CCCCO[Si](c2ccccc2)(c2ccccc2)C(C)(C)C)c(OC)c(OC)c1OC")
58.3
>>> assay_result("O=C1/C(=C/c2ccccc2)CN(C(=O)C(Cl)(Cl)Cl)C/C1=C\\c1ccccc1")
2.18
>>> assay_result("Clc1cc(OC2C3CC4CC(C3)CC2C4)nc(Cl)n1 (stereo not given)")
14.4
>>> assay_result("Oc1cc2c3c(c1)c1cc4c(cc1c[n+]3CC2)OCO4")
18.4

* * *

- Test system: HOP-18 NSCLC
- ASSAY_PROTOCOL: NCI tumour cell line growth inhibition, 48 h
PARAMETER: TGI

>>> assay_result("Clc1cc2nsnc2c(Cl)n1")
"31.7 µM"
>>> assay_result("COC1(OC)CCC2C1C1CCC(OC)(OC)C21 (stereo not drawn)")
"> 50 µM"
>>> assay_result("[N-]=[N+]=Nc1cc(=O)oc2ccccc12")
"> 100 µM"
>>> assay_result("CC1=C(C(=O)NCc2ccccc2)C(/C=C/c2ccccc2)C(C(=O)NCc2ccccc2)=C(C)N1")
"> 100 µM"
>>> assay_result("O=C1C(=O)N(c2ccc(Cl)cc2Cl)C(=O)C(=O)C1c1nc2ccccc2s1")
"> 100 µM"
>>> assay_result("CCOC(=O)C1=C(C)NC(=S)NC1c1ccccc1 (stereo not drawn)")
"98.4 µM"
>>> assay_result("O=C([O-])CC(=O)[O-].O=C([O-])CC(=O)[O-].[K+].[Pd+2]")
"> 100 µM"
>>> assay_result("N#CC1C(C#N)C2(c3ccccc3)C(c3ccccc3)=NN(c3ccccc3)CC12 (stereo not drawn)")
"> 100 µM"
>>> assay_result("CCN(CC)CCC(=O)Nc1ccc2c(c1)C(=O)c1ccc(NC(=O)CCN(CC)CC)cc1C2=O")
"18.4 µM"
>>> assay_result("O=CN/C=C/c1cc(O)ccc1O")
"> 56.8 µM"
>>> assay_result("N#CN=C(N(Cc1ccccc1)Cc1ccccc1)N(Cc1ccccc1)Cc1ccccc1")
"> 100 µM"
>>> assay_result("C[C@]12CC[C@H](O)CC1=CC[C@@H]1C2CC[C@]2(C)C(=O)N(N)C(=O)CC12 (stereo partly drawn)")
"> 100 µM"
>>> assay_result("O=C(O)c1ccccc1[Se][Se]c1ccccc1C(=O)O")
"> 100 µM"
>>> assay_result("CC(=O)Nc1ccc(-c2nnc(SCC(=O)Nc3ccc([N+](=O)[O-])cc3)o2)cc1")
"29.9 µM"
>>> assay_result("O=C1c2ccccc2C2C1N2C(=O)C(F)(F)F (stereo not drawn)")
"> 100 µM"
>>> assay_result("CN(C)CC[N+]1=Nc2cccc3cccc(c23)N1")
"> 100 µM"
>>> assay_result("Cn1cnc([N+](=O)[O-])c1Sc1nnc(-c2cccnc2)n1C")
"35.6 µM"
>>> assay_result("COC(CN1C(=O)c2cccc3cccc(c23)C1=O)OC")
"> 100 µM"
